- experimental details: CoQ10 solubility/concentration in non-aqueous formulations at elevated temperature
- Format: physicochemical
- cond: non-aqueous formulations, organic solvent or mixture; elevated temperature close to its melting temperature (48° C.); read-out: solubility of CoQ10 in non-aqueous formulations
readout kind: solubility

compound_string=COC1=C(OC)C(=O)C(C/C=C(\C)CC/C=C(\C)CC/C=C(\C)CC/C=C(\C)CC/C=C(\C)CC/C=C(\C)CC/C=C(\C)CC/C=C(\C)CC/C=C(\C)CCC=C(C)C)=C(C)C1=O observed_measurement="> 100 mg/mL"

---

- experimental details: CoQ10 solubility/concentration in non-aqueous formulations at elevated temperature
- Assay type: physicochemical
- cond: invention formulations, organic solvent or mixture; temperature between 30° C. and 60° C., preferably not above 50° C.; read-out: CoQ10 concentration solubilized by the invention formulations
readout kind: solubility

compound_string=COC1=C(OC)C(=O)C(C/C=C(\C)CC/C=C(\C)CC/C=C(\C)CC/C=C(\C)CC/C=C(\C)CC/C=C(\C)CC/C=C(\C)CC/C=C(\C)CC/C=C(\C)CCC=C(C)C)=C(C)C1=O observed_measurement="> 100 mg/mL"

---

- experimental details: CoQ10 solubility at 37° C. in water and in placebo AQUA Q10 formulation
- Format: physicochemical
- cond: placebo AQUA Q10 formulation, oil or lipid, placebo Incromega E3322/Capmul CMC C-8/Cremophor EL 40/25/20, read-out: CoQ10 solubility in AQUA Q10 formulation
readout kind: solubility (mg/mL)

compound_string=COC1=C(OC)C(=O)C(C/C=C(\C)CC/C=C(\C)CC/C=C(\C)CC/C=C(\C)CC/C=C(\C)CC/C=C(\C)CC/C=C(\C)CC/C=C(\C)CC/C=C(\C)CCC=C(C)C)=C(C)C1=O unit_of_measurement=mg/mL observed_measurement=177
